System: M14 melanoma
test.protocol: NCI tumour cell line growth inhibition, 48 h
measurement.kind: TGI

See these solved cases before continuing.
- compound: "CC(C)=CCC(O)[C@](C)(O)[C@H]1[C@H](O)C[C@@]2(C)[C@@H]3CCc4cc(O)c(OC5OC(CO)C(O)C(O)C5O)cc4C3(C)C(=O)C[C@]12C (some centres undefined)"
  TGI: "> 100 µM"
- compound: "O=C1CC(c2cccc([N+](=O)[O-])c2)C2(C(=O)NC(=O)NC2=O)C(c2cccc([N+](=O)[O-])c2)C1 (centres undefined)"
  TGI: "> 100 µM"
- compound: "NC(=O)c1cc(Cl)ccc1NC(=O)/C=C/c1ccccc1"
  TGI: "> 31.5 µM"
- compound: "COCCCNc1nc(N)c(C#N)c(C#N)c1C#N"
  TGI: "> 10 µM"
- compound: "NNC(=O)c1c(SCc2ccccc2)nc2c3ccccc3ccn12"
  TGI: "41.2 µM"

Indicate its recorded TGI; the compound in question is "CCNCCNc1cc(-c2ccc(C(F)(F)F)cc2)c(C#N)c2nc3ccccc3n12"
3.16 µM

Indicate its recorded TGI; the compound in question is "COC(=O)c1cc2c(cc1Cl)Sc1nnc(Nc3ccc(C)cc3)n1S2(=O)=O"
27.6 µM

Indicate its recorded TGI; the compound in question is "O=Cc1ccccc1COC(=O)c1cc(C(=O)OCc2ccccc2C=O)c(C(=O)OCc2ccccc2C=O)cc1C(=O)OCc1ccccc1C=O"
> 100 µM

Indicate its recorded TGI; the compound in question is "Clc1cc(Cl)c2ns[s+]c2c1Cl"
> 100 µM

###

Consider the following compounds and their measured GI50 readings.
Test system: MALME-3M melanoma
test.protocol: NCI tumour cell line growth inhibition, 48 h

See these solved cases before continuing.
- compound: "CCOC(=O)C1CCN(S(=O)(=O)/N=C2/NC(=O)NC2=C(Cl)Cl)CC1"
  GI50: "1.7 µM"
- compound: "Cc1cc(C)c(NC(=O)c2sc3nc4c(cc3c2N)C(=O)CCC4)c(C)c1"
  GI50: "1.83 µM"
- compound: "CC/C=C\\C[C@H](O)C/C=C1/C(=O)C=C[C@@H]1C/C=C\\CCCC(=O)OC"
  GI50: "2.14 µM"
- compound: "CCc1nc2cc(F)c(/C=C/C(=O)NO)cc2c(=O)n1CCc1ccccc1"
  GI50: "0.216 µM"
- compound: "COc1cc2c3c(n(CCCN)c(=O)c2cc1OC)-c1ccc(C#N)cc1C3=O"
  GI50: "18.9 µM"

For MALME-3M melanoma, give GI50 of the listed compound: "CN1CCN(CCCNc2nc3ccc(Oc4ccc(NC(=O)Nc5cc(C(F)(F)F)ccc5F)cc4)cc3[nH]2)CC1"
4.69 µM

For MALME-3M melanoma, give GI50 of the listed compound: CC12OC(C(=O)C13CC3)C1C(=O)c3ccc4c(ccc5ccccc54)c3C(=O)C12 (configuration not stated)
14.2 µM

For MALME-3M melanoma, give GI50 of the listed compound: "c1ccc(Sc2ccc(Cc3nc4cc5ccccc5cc4[nH]3)cc2)cc1"
9.93 µM

For MALME-3M melanoma, give GI50 of the listed compound: "O=C1c2cccnc2-c2nc(-c3ccc(Cl)cc3)cc3c2c1nc1ccccc13"
20.2 µM

For MALME-3M melanoma, give GI50 of the listed compound: "Cc1ccc(N=C/C=C(\Nc2ccc(C)cc2)c2ccc(Cl)cc2)cc1"
9.27 µM

For MALME-3M melanoma, give GI50 of the listed compound: "O=C1/C(=C(/c2ccccc2)N2CCOCC2)Cc2ccccc21"
1.28 µM

For MALME-3M melanoma, give GI50 of the listed compound: "COc1ccc(C(=O)c2cc(C)c(OC)c(C)c2)c(OC)c1O"
0.0739 µM
